Target: T1, mouse GLP-1 receptor (mouse, UniProt O35659 22-463)
T1 sequence (looked up): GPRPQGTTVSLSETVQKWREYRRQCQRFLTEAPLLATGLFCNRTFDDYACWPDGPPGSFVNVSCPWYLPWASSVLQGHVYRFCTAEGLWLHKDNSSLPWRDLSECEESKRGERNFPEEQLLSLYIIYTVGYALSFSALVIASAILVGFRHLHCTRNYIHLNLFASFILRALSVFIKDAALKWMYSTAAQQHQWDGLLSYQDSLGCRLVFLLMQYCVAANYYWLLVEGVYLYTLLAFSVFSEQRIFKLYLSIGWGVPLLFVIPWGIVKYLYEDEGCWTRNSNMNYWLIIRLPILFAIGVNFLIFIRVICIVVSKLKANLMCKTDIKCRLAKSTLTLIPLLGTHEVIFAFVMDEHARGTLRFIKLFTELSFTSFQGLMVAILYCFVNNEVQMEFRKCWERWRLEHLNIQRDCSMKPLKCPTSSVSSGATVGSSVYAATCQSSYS
Experiment: cell-based or functional assay
No end group written: not given here.
Readout: EC50 mouse

Examples with their reported EC50 mouse follow.
Query: Supply recorded EC50 mouse for MDHAEGTFTSDVSSYLEGQAAKEFIAWLVKGR (Not pegylated) [MD-GLP1 (SEQ ID NO: 261)] here.
Reply: 2 nM

Query: Supply recorded EC50 mouse for MQHAEGTFTSDVSSYLEGQAAKEFIAWLVKGR (ends and bridges not checked, Not pegylated) [MQ-GLP1 (SEQ ID NO: 253)] here.
Reply: 3 nM

Query: Supply recorded EC50 mouse for PHAEGTFTSDVSSYLEGQAAKEFIAWLVKGR (ends and bridges not checked, Not pegylated; also called P-CLP-1) [P-GLP-1 (SEQ ID NO: 249)] here.
Reply: 1 nM

Query: Supply recorded EC50 mouse for MMHAEGTFTSDVSSYLEGQAAKEFIAWLVKGR (not fully specified; ends and bridges not checked, Not pegylated) [MM-GLP1 (SEQ ID NO: 267)] here.
Reply: 3 nM

Kindly consider the entry below.
Query: Supply recorded EC50 mouse for MRHAEGTFTSDVSSYLEGQAAKEFIAWLVKGR (ends and bridges not checked, Not pegylated) [MR-GLP1 (SEQ ID NO: 254)] here.
Reply: 41 nM

Origin of the recorded values: patent US20100048468A1
